Documented TGI across a set of molecules
tested on: M19-MEL melanoma; test: NCI tumour cell line growth inhibition, 48 h

Completed entries (count: 8):
* COc1cc(OC(=O)c2c(O)cc(O)c(O)c2C)cc(C)c1C(=O)Oc1cc(C)c(C(=O)O)c(O)c1 | > 100 µM
* CN(C)CC/C(=N\Nc1c(Cl)cccc1Cl)c1ccccc1 | 33.6 µM
* CC1(n2nc(-c3ccccc3)n(-c3ccccc3)c2=O)CSC1 | > 100 µM
* COc1c2c(cc3nc4ccccc4nc13)CCC(C(C)(C)O)C2 (stereo not given) | > 100 µM
* CC(C)=CCC/C(=C/CC/C(C)=C/CCc1ccoc1)C(=O)O | > 100 µM
* CCC[CH2][Sn]1([CH2]CCC)[O]C(=O)C(C(C)C)N=Cc2ccccc2[O]1 (stereo not given) | 1.08 µM
* O=c1cccccc1NCCCNc1cccccc1=O | > 100 µM
* COC(=O)c1cc(Br)c(Br)n1C | > 100 µM

Recall and state the measured TGI for `CC(C)N(C(=O)C12CC3CC(CC(C3)C1)C2)C(C)C` .
> 50 µM

Given `CCOC(=O)NC(=O)c1cn(CCOCCOC(=O)NCCCCCCNC(=O)OCCOCCn2cc(C(=O)NC(=O)OCC)c(=O)[nH]c2=O)c(=O)[nH]c1=O` , respond with its TGI.
> 100 µM
